Tested on: Sonic hedgehog protein (Shh)
Protocol: small-molecule binders of Shh protein, primary screen, biochemical, small-molecule microarray, 635/667 nm fluorescence (AID 1151);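 further: Shh protein binding to compounds spotted on small-molecule microarray slides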
Condition notes: small-molecule microarray binding, 635 nm fluorescence; higher = more signal
# binarize composite z-score: threshold 0.6 inclusive, high side Satisfied, low side Not satisfied

Recorded results for 5 compounds are shown here.
compound=C[C@H]1CC[C@@H](C(=O)O)N[C@@H]1c1cccc(N2CCCC2=O)c1 assigned_category="Not satisfied"
compound="CO[C@@H](C(C)C)[C@@H](C)C1OC(=O)CC1O (stereo partly drawn)" assigned_category="Not satisfied"
compound=CC(CCN1CCCCc2nc(C)c(C)cc21)=NOC[C@@H](O)[C@H]1O[C@@H]2OC(C)(C)O[C@@H]2[C@H]1O assigned_category=Satisfied
compound=Cc1ccc(S(=O)(=O)N[C@@H]2COC(=O)CC=C[C@@H](C)[C@H](NS(=O)(=O)c3ccc(C)cc3)COC(=O)[C@H](C)NC(=O)CC=C[C@H]2C)cc1 assigned_category="Not satisfied"
compound=COC(=O)[C@@H]1CC[C@H](C)[C@@H](c2ccc(C)cc2)N1C(=O)c1ccc(C=NO[C@@H](C)c2cc(-c3c(C)cc(C)cc3C)no2)cc1 assigned_category=Satisfied

Exam item: Please check the record COC(=O)CC=C[C@@H](C)[C@@H](C=NOC[C@@H](O)COCc1ccco1)NS(=O)(=O)c1ccc(C)cc1 and state if its composite z-score is at or above 0.6.
Marked response: Satisfied

Exam item: Please check the record CON=C1c2cc(OC)ccc2O[C@H](c2cccc(OC)c2)[C@H]1O and state if its composite z-score is at or above 0.6.
Marked response: Satisfied
